- system_name: T1, B-cat-Halo (beta-catenin HaloTag construct expressed in HEK293 cells) (UniProt P35222 1-781)
- T1 sequence (looked up): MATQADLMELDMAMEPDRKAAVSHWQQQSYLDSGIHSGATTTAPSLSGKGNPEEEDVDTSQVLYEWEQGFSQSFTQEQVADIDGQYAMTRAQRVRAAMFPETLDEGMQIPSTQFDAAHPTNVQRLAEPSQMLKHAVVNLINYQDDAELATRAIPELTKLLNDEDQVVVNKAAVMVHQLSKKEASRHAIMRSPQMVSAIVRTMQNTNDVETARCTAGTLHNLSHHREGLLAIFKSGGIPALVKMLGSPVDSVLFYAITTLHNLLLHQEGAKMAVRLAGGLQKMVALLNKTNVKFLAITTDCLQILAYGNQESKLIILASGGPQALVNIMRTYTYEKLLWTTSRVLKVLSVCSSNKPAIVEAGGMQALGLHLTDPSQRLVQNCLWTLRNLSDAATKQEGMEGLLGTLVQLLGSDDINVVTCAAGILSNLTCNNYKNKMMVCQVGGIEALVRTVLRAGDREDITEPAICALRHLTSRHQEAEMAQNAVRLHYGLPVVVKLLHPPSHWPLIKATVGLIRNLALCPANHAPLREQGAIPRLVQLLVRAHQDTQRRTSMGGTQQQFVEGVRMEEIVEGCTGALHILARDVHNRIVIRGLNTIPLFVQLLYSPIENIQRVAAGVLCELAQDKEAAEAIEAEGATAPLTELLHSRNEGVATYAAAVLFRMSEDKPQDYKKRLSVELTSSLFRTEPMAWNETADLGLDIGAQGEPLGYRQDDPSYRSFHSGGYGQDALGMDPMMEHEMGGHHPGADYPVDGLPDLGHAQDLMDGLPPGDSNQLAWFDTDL
- test_protocol: cell-based or functional assay
Starred links: 1 amine or outer side, 2 acyl side, 3 side chain; linkers in the order of their positions; H or OH if unused. Positions of bridges follow the written chain, without caps; N, C: chain ends. Non-standard residues stand in square brackets, D forms with d. Primed or numbered codes have the meaning given here. PyrS2″ = (S)-3-amino-1-((pent-4-en-1-yloxy)carbonyl)pyrrolidine-3-carboxylic acid (stapling residue), C=CCCCOC(=O)N1CC[C@@](N[*:1])(C(=O)[*:2])C1; B5(4) = 2,2-bis(4-pentenyl)glycine = 2-amino-2-(pent-4-en-1-yl)hept-6-enoic acid (stitching residue), C=CCCCC(CCCC=C)(N[*:1])C(=O)[*:2]; PyrS2 = (S)-3-amino-1-((pent-4-en-1-yloxy)carbonyl)pyrrolidine-3-carboxylic acid, C=CCCCOC(=O)N1CC[C@@](N[*:1])(C(=O)[*:2])C1; PyrS = (S)-1-((allyloxy)carbonyl)-3-aminopyrrolidine-3-carboxylic acid, C=CCOC(=O)N1CC[C@@](N[*:1])(C(=O)[*:2])C1; B6 = 2-amino-2-(hex-5-en-1-yl)oct-7-enoic acid, C=CCCCCC(CCCCC=C)(N[*:1])C(=O)[*:2]; Phe(3-COOH) = N[C@@H](Cc1cccc(C(=O)O)c1)C(=O)O; Phe(2-CF3) = N[C@@H](Cc1ccccc1C(F)(F)F)C(=O)O; Bta = N[C@@H](Cc1csc2ccccc12)C(=O)O; αAllylPro = C=CC[C@@]1(C(=O)O)CCCN1; tBuAla = CC(C)(C)C[C@H](N)C(=O)O
This listing pairs binders with measured NanoBRET Abs IC50 (uM); Bcat-Halo / TCF4-Luc in HEK293 cells.

Some solved cases for reference:
binder	readout_value
Ac-[αAllylPro]D[tBuAla][B5(4)]D[Phe(3-COOH)]AAFL[PyrS2″][Phe(2-CF3)][Bta][Me2Gln]-NH2 (staple 1-4, 4-11) [I-2532]	4.5 µM
Ac-[αAllylPro]D[tBuAla][B5(4)]DXQAFL[PyrS2][Phe(2-CF3)][Bta]A-NH2 (staple 1-4, 4-11; not fully specified (residue 6); printed as Ac-PL3-Asp-Npg-B5-Asp-[CH2CChCO2H]TriAzDap-Gln-Ala-Phe-Leu-PyrS2-2F3MeF-BztA-Ala-NH2) [I-2520]	5.9 µM
Ac-[αAllylPro]D[tBuAla][B6]D[Phe(3-COOH)]QAFL[PyrS2][Phe(2-CF3)][Bta]A-NH2 (staple 1-4, 4-11) [I-2515]	> 20 µM

Give the value of NanoBRET Abs IC50 (uM); Bcat-Halo / TCF4-Luc in HEK293 cells reported for the following: Ac-[αAllylPro]D[tBuAla][B6]D[Phe(3-COOH)]AAFL[PyrS][Phe(2-CF3)][Bta]Q-NH2 (staple 1-4, 4-11) [I-2518]
> 20 µM
